Target: Fuc(a1-2)[Gal(a1-3)]Gal(b1-4)GlcNAc(b1-3)[Fuc(a1-2)[Gal(a1-3)]Gal(b1-4)GlcNAc(b1-6)]GalNAc
Experiment: glycan array binding signal (z-score within array); higher = stronger binding
Details: glycan notation: IUPAC condensed, linker removed
Shown is part of a subset that was picked to be rich in the strongest signals.

{"Binder": "SP16665A-bot-344-23-344 (Bacteroides ovatus) (protein) SDNEFPDFDYQTVYFANQYGLRTIELGESEFVDNTLDNQHKMVIKAAWGGGYTNRNNVVINFKVDESLCDNLYFKDTDQPLVPMPASYYTLASDRIAIPKGQIMAGVEVQLTDDFFADEKSISENYVIPLLMTNVQGADSILQGKPVVENPVLTNAGDWSILPQNFVLYAVKYVNPWHGEYLRRGIDHATVAGTSKDIIRHEQFVENDEVVNISTKSMKDNLLTLKTKDESGKDISYTVRLSFAEDGSCTVHSGSQNVVVSGSGKFVSKGEKNSLGGKDRNAIYLDYTVNLTDNNIQLATKDTLVLRTRNVYGGKSLEVVRK", "glycan array binding signal (z-score)": 8.34}
{"Binder": "OGAN (protein) MVQKESQATLEERESELSSNPAASAGASLEPPAAPAPGEDNPAGAGGAAVAGAAGGARRFLCGVVEGFYGRPWVMEQRKELFRRLQKWELNTYLYAPKDDYKHRMFWREMYSVEEAEQLMTLISAAREYEIEFIYAISPGLDITFSNPKEVSTLKRKLDQVSQFGCRSFALLFNDIDHNMCAADKEVFSSFAHAQVSITNEIYQYLGEPETFLFCPTEYCGTFCYPNVSQSPYLRTVGEKLLPGIEVLWTGPKVVSKEIPVESIEEVSKIIKRAPVIWDNIHANDYDQKRLFLGPYKGRSTELIPRLKGVLTNPNCEFEANYVAIHTLATWYKSNMNGVRKDVVMTDSEDSTVSIQIKLENEGSDEDIETDVLYSPQMALKLALTEWLQEFGVPHQY", "glycan array binding signal (z-score)": 0.056}
{"Binder": "LgFlo1 (Saccharomyces pastorianus), B3IUA8 (protein) SGSTQACLPVGSRKNGMNVNFYKYSLQDSTTYSDPQYMAYKYSDTKKLGSVSGQTHLSIYYGPNTAFWNTASWSSDLFGFYTTPTNVTVEMTGYFLPPQTGSYTFKFATVDDSAILSVGGSIAFECCAQEQPPITSTDFTINGIKPWDAATPTDIKGSTYMYAGYYYPIKIVYSNAKALARLPVSVVLPDGTEVNDDFEGYVYSFDDDLSQSNCTIPDPSKHTTS", "glycan array binding signal (z-score)": 2.44}
{"Binder": "CLEC5A (Homo sapiens), Q9NY25 (protein) MNWHMIISGLIVVVLKVVGMTLFLLYFPQIFNKSNDGFTTTRSYGTVSQIFGSSSPSPNGFITTRSYGTVCPKDWEFYQARCFFLSTSESSWNESRDFCKGKGSTLAIVNTPEKLKFLQDITDAEKYFIGLIYHREEKRWRWINNSVFNGNVTNQNQNFNCATIGLTKTFDAASCDISYRRICEKNAK", "glycan array binding signal (z-score)": 2}
{"Binder": "GNA (Galanthus nivalis), P30617 (protein) MAKASLLILAAIFLGVITPSCLSDNILYSGETLSTGEFLNYGSFVFIMQEDCNLVLYDVDKPIWATNTGGLSRSCFLSMQTDGNLVVYNPSNKPIWASNTGGQNGNYVCILQKDRNVVIYGTDRWATGTHTGLVGIPASPPSEKYPTAGKIKLVTAK", "glycan array binding signal (z-score)": -0.171}
